Just for reference, ChEMBL document CHEMBL5634090 is where these values come from.

Test system: Staphylococcus aureus
Experiment: Antibacterial activity against methicillin resistant Staphylococcus aureus NCTC 10442 by microbroth dilution assay
Type: functional
# MIC per record follows
Quantity: MIC (µg/mL)

- Compound String: "CCCCCCCN1c2ccccc2Sc2ccc(OCC(=O)N[C@@H](CCCNC(=N)N)C(=O)N[C@@H](CCCNC(=N)N)C(=O)OC)cc21"
  Endpoint Value: 1.56
- Compound String: "CCCCCCCCCN1c2ccccc2Sc2ccc(OCC(=O)N[C@@H](CCCNC(=N)N)C(=O)N[C@@H](CCCNC(=N)N)C(=O)N[C@@H](CCCNC(=N)N)C(=O)OC)cc21"
  Endpoint Value: 1.56
- Compound String: "CCCCCCCCCOc1ccc2c(c1)N(CCCCNC(=N)N)c1ccccc1S2"
  Endpoint Value: 1.56
- Compound String: "CCCCCOc1ccc2c(c1)N(CCCNC(=N)N)c1ccccc1S2"
  Endpoint Value: 0.78
- Compound String: "CCCCCCCCCOc1ccc2c(c1)N(CCCCN)c1ccccc1S2"
  Endpoint Value: 3.12

----------
Experiment: Selectivity index, ratio of CC50 for cytotoxicity against HEK293 cells to MIC for antibacterial activity against Escherichia coli ATCC 25922
Format: toxicity, cell-based
Condition Info: human, read-out: Selectivity Index
Quantity: selectivity ratio

- Compound String: "CCCCCCCN1c2ccccc2Sc2ccc(OCC(=O)N[C@@H](CCCNC(=N)N)C(=O)N[C@@H](CCCNC(=N)N)C(N)=O)cc21"
  Endpoint Value: 8

----------
Experiment: Selectivity index, ratio of CC50 for cytotoxicity against HEK293 cells to MIC for antibacterial activity against Pseudomonas aeruginosa ATCC 9027
Format: toxicity, cell-based
Condition Info: human, read-out: Selectivity Index

- Compound String: "CCCCCCCN1c2ccccc2Sc2ccc(OCC(=O)N[C@@H](CCCNC(=N)N)C(=O)N[C@@H](CCCNC(=N)N)C(N)=O)cc21"
  selectivity ratio: 8

----------
Tested on: Staphylococcus aureus
Experiment: Antibacterial activity against Staphylococcus aureus ATCC 29213 by microbroth dilution assay
Format: functional
Measured MIC accompanies every entry in the list below.
Quantity: MIC

- Compound String: "CCCCCOc1ccc2c(c1)Nc1ccccc1S2"
  Endpoint Value: "> 50 µg/mL"
- Compound String: "CCOC(=O)COc1ccc2c(c1)Nc1ccccc1S2"
  Endpoint Value: "> 50 µg/mL"
- Compound String: "Oc1ccc2c(c1)Nc1ccccc1S2"
  Endpoint Value: "> 50 µg/mL"
- Compound String: "COc1ccc2c(c1)Nc1ccccc1S2"
  Endpoint Value: "> 50 µg/mL"
